# EXPERIMENTAL TARGET: T1, GFP-9S library array, motif 4 ND N98I;D124K (synthetic construct, N98I;D124K)
# T1 chain: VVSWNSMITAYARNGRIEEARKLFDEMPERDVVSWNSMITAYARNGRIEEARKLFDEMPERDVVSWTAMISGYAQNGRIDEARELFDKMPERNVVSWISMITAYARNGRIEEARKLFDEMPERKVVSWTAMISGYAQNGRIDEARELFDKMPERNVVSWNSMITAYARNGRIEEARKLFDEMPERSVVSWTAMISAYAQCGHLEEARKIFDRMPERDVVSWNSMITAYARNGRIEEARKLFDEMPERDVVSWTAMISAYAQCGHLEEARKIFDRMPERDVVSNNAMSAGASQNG
# TEST: high-throughput RNA pulldown from lysate on Ni-NTA beads; HRP: 50 mM Tris pH 8, 150 mM NaCl, 1 mM beta-mercaptoethanol, 50 ug/ml BSA, 3 ug/ml yeast RNA, 0.5% heparin; ITC and FP: Tris pH 8, 200 mM KCl, 5% glycerol; MST: 50 mM Tris pH 8, 200 mM NaCl, 1 mM DTT, BSA, heparin, 0.05% Tween 20
# TEST CONTEXT: tags: N-terminal His-eGFP; label: 5' Cy5
PROPERTY LABEL: pKd
Field pKd (float): negative decimal logarithm of the concentration in molar.

Task: Form field: reported pKd of AUUAGACGUGA (ssRNA) [Cy5-rpoA-G]
Output: 6.92

Task: GET /values?readout=pKd&item= AUUACACGUGA (ssRNA) [Cy5-rpoA]
Output: 6.88
